Numbers sourced from patent US20050238642A1.

System: PBMCs (peripheral blood mononuclear cells) from naive donors
experiment_summary: Naive human T-cell proliferation assay (3H-thymidine incorporation, stimulation index)
Assay type: cell-based
condition_details: compilation of 20 donors, 1 μM and 5 μM
quantity_kind: presence of T cell epitope

IVEDLDGDELEILEP [peptide 88, 15-mer peptide of the unprocessed form of bouganin, first amino acid 261]	T cell epitopes
NGQEIAKFFLIVIQM [peptide 50, bouganin 15-mer peptide, first amino acid 148]	T cell epitopes
LGVYKLEFSIEAIHG [peptide 44, bouganin 15-mer peptide, first amino acid 130]	T cell epitopes
AKVDRKDLELGVYKL [peptide 41, bouganin 15-mer peptide, first amino acid 121]	T cell epitopes

* * *

System: A-375
experiment_summary: MTS cytotoxicity assay
Format: cell-based
condition_details: Homo sapiens, 120 h; Ep-CAM-negative A-375, MTS, 5 days
Protocol: The MTS assay was preformed using standard techniques known in the art. More particularly, 50 microlitres of cells (2×10^4 cells/ml) were seeded per well and plates were incubated at 37° C. under 5% CO2 for 2 hr. […] At day 5, the inhibition of cell proliferation was evaluated by adding 20 microlitres of MTS reagent (Promega, Cat# G5430). The plates were further incubated at 37° C. under 5% CO2 for 2 hr and ODs were read at 490 nm using the plate reader spetrophotometer. […]
Checkbox rule: IC50 lower than 3 nM = Yes; IC50 not lower than 3 nM = No.

**Query** Lab note: confirm whether the reported IC50 for this compound is below 3 nM, equality not counting. compound: O=c1[nH]cc(F)c(=O)[nH]1
**Result** No

**Query** Lab note: confirm whether the reported IC50 for this compound is below 3 nM, equality not counting. compound: COc1cc([C@@H]2c3cc4c(cc3[C@@H](O[C@@H]3O[C@@H]5CO[C@@H](C)O[C@H]5[C@H](O)[C@H]3O)[C@H]3COC(=O)[C@H]23)OCO4)cc(OC)c1O [Etoposide]
**Result** No

**Query** Lab note: confirm whether the reported IC50 for this compound is below 3 nM, equality not counting. compound: COc1cccc2c1C(=O)c1c(O)c3c(c(O)c1C2=O)C[C@@](O)(C(=O)CO)C[C@@H]3O[C@H]1C[C@H](N)[C@H](O)[C@H](C)O1
**Result** Yes

**Query** Lab note: confirm whether the reported IC50 for this compound is below 3 nM, equality not counting. compound: CC[C@@]1(O)C(=O)OCc2c1cc1n(c2=O)Cc2cc3c(CN(C)C)c(O)ccc3nc2-1
**Result** Yes

**Query** Lab note: confirm whether the reported IC50 for this compound is below 3 nM, equality not counting. compound: O=C(O)CCCc1ccc(N(CCCl)CCCl)cc1
**Result** No

**Query** Lab note: confirm whether the reported IC50 for this compound is below 3 nM, equality not counting. compound: CCc1c2c(nc3ccc(OC(=O)N4CCC(N5CCCCC5)CC4)cc13)-c1cc3c(c(=O)n1C2)COC(=O)[C@]3(O)CC
**Result** No

**Query** Lab note: confirm whether the reported IC50 for this compound is below 3 nM, equality not counting. compound: CN(Cc1cnc2nc(N)nc(N)c2n1)c1ccc(C(=O)N[C@@H](CCC(=O)O)C(=O)O)cc1 [Methotrexate]
**Result** No

**Query** Lab note: confirm whether the reported IC50 for this compound is below 3 nM, equality not counting. compound: O=P1(N(CCCl)CCCl)NCCCO1 (centres unmarked) [Cyclophosphamide]
**Result** No

* * *

Test system: A-375
experiment_summary: MTS cytotoxicity assay
Assay type: cell-based
condition_details: Ep-CAM-negative A-375, MTS, 5 days
quantity_kind: IC50

**Query** For N.N.O=C([O-])C1(C(=O)[O-])CCC1.[Pt+2] [Carboplatin] , what is its reported IC50?
**Result** > 1000 nM

**Query** For N.N.[Cl][Pt][Cl] [Cisplatin] , what is its reported IC50?
**Result** > 1000 nM

**Query** For Cc1c(N)nc([C@H](CC(N)=O)NC[C@H](N)C(N)=O)nc1C(=O)N[C@H](C(=O)N[C@H](C)[C@@H](O)[C@H](C)C(=O)N[C@H](C(=O)NCCc1nc(-c2nc(C(=O)NCCCNCCCCN)cs2)cs1)[C@@H](C)O)[C@@H](O[C@@H]1O[C@@H](CO)[C@@H](O)[C@H](O)[C@@H]1O[C@@H]1O[C@H](CO)[C@@H](O)[C@H](OC(N)=O)[C@@H]1O)c1cnc[nH]1 [Bleomycin A5] , what is its reported IC50?
**Result** 290 nM

**Query** For CO[C@@]12[C@H](COC(N)=O)C3=C(C(=O)C(C)=C(N)C3=O)N1C[C@@H]1N[C@@H]12 [Mitomycin C] , what is its reported IC50?
**Result** 14 nM
